Just for reference, patent US10925971B2 is where these values come from.

# Assay Target: T1, native PRLR expressing T47D cells (Homo sapiens, UniProt P16471)
# T1 construct: a native PRLR expressing cell line (T47D); endogenous in cells; host or cells: T47D
# T1 sequence (P16471 25-622): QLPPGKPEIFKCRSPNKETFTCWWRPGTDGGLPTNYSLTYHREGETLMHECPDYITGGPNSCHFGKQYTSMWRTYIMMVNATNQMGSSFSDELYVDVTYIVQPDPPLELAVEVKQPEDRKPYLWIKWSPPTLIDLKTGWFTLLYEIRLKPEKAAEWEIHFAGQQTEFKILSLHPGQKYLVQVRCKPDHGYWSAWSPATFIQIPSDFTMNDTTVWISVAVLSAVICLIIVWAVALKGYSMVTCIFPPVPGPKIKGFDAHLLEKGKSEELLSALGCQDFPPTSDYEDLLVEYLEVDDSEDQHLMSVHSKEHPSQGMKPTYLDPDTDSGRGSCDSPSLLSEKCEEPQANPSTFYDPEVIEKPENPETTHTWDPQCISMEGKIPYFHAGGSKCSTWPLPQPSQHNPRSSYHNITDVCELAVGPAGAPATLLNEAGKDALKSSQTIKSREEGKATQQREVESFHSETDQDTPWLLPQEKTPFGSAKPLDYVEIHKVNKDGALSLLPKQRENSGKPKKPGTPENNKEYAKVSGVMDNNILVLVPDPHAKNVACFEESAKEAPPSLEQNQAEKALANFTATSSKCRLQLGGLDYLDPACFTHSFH
# Experiment Summary: FACS cell surface binding
Quick reference for FACS Cell Binding among some molecules
Supply the numeric figure in Fold Above Background, leaving out any unit text.

Molecule | Unit Of Measure | FACS Cell Binding
H1H6765P: fully human anti-PRLR antibody, human IgG1 Fc; HCVR/LCVR SEQ ID NOs 18/26 (antibody, V domains shown) VH: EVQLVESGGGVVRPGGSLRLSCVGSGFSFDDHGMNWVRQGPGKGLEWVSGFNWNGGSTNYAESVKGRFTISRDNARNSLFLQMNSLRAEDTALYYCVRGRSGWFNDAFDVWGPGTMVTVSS VL: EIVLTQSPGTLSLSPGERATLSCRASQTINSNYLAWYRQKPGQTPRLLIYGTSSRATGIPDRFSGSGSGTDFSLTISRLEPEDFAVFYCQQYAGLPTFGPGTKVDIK | Fold Above Background | 40

Now consider a different molecule.
Record summary for H1H6781P: fully human anti-PRLR antibody, human IgG1 Fc; HCVR/LCVR SEQ ID NOs 50/58 (antibody, V domains shown) VH: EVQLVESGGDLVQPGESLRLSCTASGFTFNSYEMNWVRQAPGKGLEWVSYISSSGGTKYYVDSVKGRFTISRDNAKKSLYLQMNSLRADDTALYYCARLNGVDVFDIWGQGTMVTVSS VL: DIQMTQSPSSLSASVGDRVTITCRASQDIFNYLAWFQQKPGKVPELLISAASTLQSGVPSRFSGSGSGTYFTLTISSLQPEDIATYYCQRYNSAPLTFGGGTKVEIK : reported FACS Cell Binding = 40
